Data credit: the supplement of paper PMC10065799

Target under test: FGFR1 (UniProt P11362)
Sequence (P11362 whole entry, looked up): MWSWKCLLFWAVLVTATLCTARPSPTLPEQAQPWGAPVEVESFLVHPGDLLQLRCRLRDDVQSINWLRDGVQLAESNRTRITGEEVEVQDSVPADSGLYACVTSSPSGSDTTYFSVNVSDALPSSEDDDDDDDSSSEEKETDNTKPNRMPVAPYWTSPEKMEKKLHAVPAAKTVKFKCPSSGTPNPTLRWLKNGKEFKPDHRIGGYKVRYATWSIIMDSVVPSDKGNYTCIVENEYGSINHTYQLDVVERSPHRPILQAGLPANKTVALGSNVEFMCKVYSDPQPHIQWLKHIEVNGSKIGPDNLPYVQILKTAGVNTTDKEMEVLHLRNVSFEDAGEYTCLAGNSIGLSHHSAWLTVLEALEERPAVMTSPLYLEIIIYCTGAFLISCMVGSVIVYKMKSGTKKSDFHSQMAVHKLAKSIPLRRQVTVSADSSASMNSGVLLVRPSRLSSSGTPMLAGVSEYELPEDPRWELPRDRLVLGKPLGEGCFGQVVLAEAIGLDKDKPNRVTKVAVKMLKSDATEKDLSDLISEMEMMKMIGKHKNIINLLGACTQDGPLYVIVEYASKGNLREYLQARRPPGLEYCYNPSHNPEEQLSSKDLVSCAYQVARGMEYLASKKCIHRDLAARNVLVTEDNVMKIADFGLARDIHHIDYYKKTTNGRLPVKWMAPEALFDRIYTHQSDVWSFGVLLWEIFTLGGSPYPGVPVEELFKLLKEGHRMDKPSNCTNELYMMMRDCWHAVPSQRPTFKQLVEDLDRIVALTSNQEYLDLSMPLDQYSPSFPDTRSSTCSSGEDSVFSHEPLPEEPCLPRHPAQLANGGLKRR
Assay comment: phosphorylation enrichment, bacterial display (enrichment ratio); higher = better substrate or ligand; peptides without Tyr show the background
Property: phosphorylation enrichment
Answer with the value's number alone.

These solved cases illustrate the format of a correct answer.
EELLRYAIVTP [POC5_Y37_H36R]; 0.514
TEYIQYMRRKN [MAX_Y73]; 0.7

Qu. Retrieve phosphorylation enrichment measured for AEMKRYSESSS [RAI14_Y869_A870S] and print it.
Ans. 0.681

###

Target under test: Grb2 SH2 (UniProt P62993)
Sequence (P62993 whole entry, looked up): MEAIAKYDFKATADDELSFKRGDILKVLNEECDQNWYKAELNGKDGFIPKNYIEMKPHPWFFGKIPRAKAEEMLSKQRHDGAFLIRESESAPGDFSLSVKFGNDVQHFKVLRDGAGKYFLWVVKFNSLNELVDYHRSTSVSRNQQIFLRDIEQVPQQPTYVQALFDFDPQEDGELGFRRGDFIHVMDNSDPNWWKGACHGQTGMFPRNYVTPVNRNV
Assay comment: SH2 binding enrichment of the phosphorylated peptide, bacterial display (enrichment ratio); higher = better substrate or ligand; peptides without Tyr show the background
Property: SH2 binding enrichment
Answer with the value's number alone.

LNPLIYTLKNA [OR4C46_Y285]; 0.642
TVETKYDNISR [SETDB2_Y477]; 0.959
GLSDLYVKIHL [SYT2_Y309_P308L]; 1.04
QDEHGYISRCF [HSPB1_Y133]; 0.662
DGSALYTGSAL [COL6A3_Y524]; 0.713
FFSSEYHFVGG [CTSC_Y345_YF]; 0.99
KLKRSYPSPDI [USP8_Y717_S718P]; 0.773
LRRFIYRPPDQ [OTOF_Y1231_R1236Q]; 0.595

Qu. Retrieve SH2 binding enrichment measured for LIHTKCPQLLP [AHCY_Y143_Y143C] and print it.
Ans. 0.941

Qu. Retrieve SH2 binding enrichment measured for KTGDFYDLFGG [PTPN11_Y63_N58K_YF] and print it.
Ans. 0.93

Qu. Retrieve SH2 binding enrichment measured for SQQTFCRVSNM [ABCD1_Y181_Y181C_YF] and print it.
Ans. 0.808

Qu. Retrieve SH2 binding enrichment measured for KLQKKYGPIYS [CYP17A1_Y60] and print it.
Ans. 1.01

###

Target under test: SHP2-C SH2
Assay comment: SH2 binding enrichment of the phosphorylated peptide, bacterial display (enrichment ratio); higher = better substrate or ligand; peptides without Tyr show the background
Property: SH2 binding enrichment
Answer with the value's number alone.

These solved cases illustrate the format of a correct answer.
KDIENYIQDGK [RAD50_Y964]; 0.687
KLQKYYRQNPD [EHHADH_Y683]; 0.694
LERYIYNREEF [HLA-DPB1_Y59]; 0.698

Proceeding to the next sequence to report its SH2 binding enrichment.
Qu. Retrieve SH2 binding enrichment measured for DVLEFCNSKKT [PAK1_Y131_Y131C] and print it.
Ans. 0.693

###

Target under test: Fyn (UniProt P06241)
Sequence (P06241 whole entry, looked up): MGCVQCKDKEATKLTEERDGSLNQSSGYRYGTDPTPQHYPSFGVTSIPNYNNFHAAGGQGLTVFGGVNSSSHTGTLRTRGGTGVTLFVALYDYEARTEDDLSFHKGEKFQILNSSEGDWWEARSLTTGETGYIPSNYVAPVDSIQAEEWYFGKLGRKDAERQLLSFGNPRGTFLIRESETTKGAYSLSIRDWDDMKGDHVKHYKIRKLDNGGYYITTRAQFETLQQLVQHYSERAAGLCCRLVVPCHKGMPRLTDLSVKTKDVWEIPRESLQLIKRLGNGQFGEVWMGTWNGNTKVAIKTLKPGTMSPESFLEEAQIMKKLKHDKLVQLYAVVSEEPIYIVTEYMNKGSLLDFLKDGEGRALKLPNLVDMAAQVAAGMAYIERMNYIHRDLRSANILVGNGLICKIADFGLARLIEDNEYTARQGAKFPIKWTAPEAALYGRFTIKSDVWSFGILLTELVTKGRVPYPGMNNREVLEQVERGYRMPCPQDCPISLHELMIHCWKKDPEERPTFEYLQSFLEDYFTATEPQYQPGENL
Assay comment: phosphorylation enrichment, bacterial display (enrichment ratio); higher = better substrate or ligand; peptides without Tyr show the background
Property: phosphorylation enrichment
Answer with the value's number alone.

These solved cases illustrate the format of a correct answer.
NHYKRYNLCAE [PTEN_Y68_I67R]; 0.512
SLGSPYEQPPR [PDLIM4_Y137_G138E]; 0.495
ASKEPYFVHCI [MYO1D_Y585_R588H_YF]; 0.503
IINENYDFLKV [NUP98_Y1664_G1669V_YF]; 0.512

Qu. Retrieve phosphorylation enrichment measured for PSSRDYKDNIK [PIGN_Y227_H229D] and print it.
Ans. 0.496

###

Tested on: Fer (mouse)
Assay comment: phosphorylation enrichment, bacterial display (enrichment ratio); higher = better substrate or ligand; peptides without Tyr show the background
Property: phosphorylation enrichment
Answer with the value's number alone.

FIPFRYPKEFQ [IDS_Y234_H229Y_YF]; 0.323
FVHDNYVIQRT [CPS1_Y1450_R1453Q]; 0.694
LKFAIYFEARE [LAMA2_Y1258_YF]; 0.884

Qu. Retrieve phosphorylation enrichment measured for FLAVGYHKPYI [IDS_Y225_H229Y] and print it.
Ans. 0.554

###

Tested on: Fer (mouse)
Assay comment: phosphorylation enrichment, bacterial display (enrichment ratio); higher = better substrate or ligand; peptides without Tyr show the background
Property: phosphorylation enrichment
Answer with the value's number alone.

These solved cases illustrate the format of a correct answer.
TYVKSYTIHYS [F5_Y2153_M2148T]; 0.568
SSSAIYDNPNL [DCP1B_Y191]; 9.27
SLQSEYVHYGG [CDC14A_Y591]; 0.441
TDTQLYGRFGS [ITGA2B_Y384_G380D]; 0.479
HRFAAYFQQGD [GPI_Y351]; 0.496

Qu. Retrieve phosphorylation enrichment measured for LTFHMYADPNF [SOS1_Y618_YF] and print it.
Ans. 0.901

Qu. Retrieve phosphorylation enrichment measured for IFLGAYDRFLP [SLC22A5_Y486_V481I_YF] and print it.
Ans. 1.1

Qu. Retrieve phosphorylation enrichment measured for DENWFYTRAAF [RPS19_Y54_S59F] and print it.
Ans. 0.571

Qu. Retrieve phosphorylation enrichment measured for SETDDYAEIIV [PTK2_Y397_D402V] and print it.
Ans. 0.82

Qu. Retrieve phosphorylation enrichment measured for RKKEEYKMAPY [F8_Y1990_L1994P] and print it.
Ans. 0.926

Qu. Retrieve phosphorylation enrichment measured for GRRGQYVMLSE [TTC7A_Y396] and print it.
Ans. 0.45

Qu. Retrieve phosphorylation enrichment measured for ASELGYQFQAI [UROD_Y133_V134Q] and print it.
Ans. 0.493

Qu. Retrieve phosphorylation enrichment measured for RLDPVYFVAPA [LAMC2_Y250] and print it.
Ans. 0.523

###

Target under test: MERTK (UniProt Q12866)
Sequence (Q12866 whole entry, looked up): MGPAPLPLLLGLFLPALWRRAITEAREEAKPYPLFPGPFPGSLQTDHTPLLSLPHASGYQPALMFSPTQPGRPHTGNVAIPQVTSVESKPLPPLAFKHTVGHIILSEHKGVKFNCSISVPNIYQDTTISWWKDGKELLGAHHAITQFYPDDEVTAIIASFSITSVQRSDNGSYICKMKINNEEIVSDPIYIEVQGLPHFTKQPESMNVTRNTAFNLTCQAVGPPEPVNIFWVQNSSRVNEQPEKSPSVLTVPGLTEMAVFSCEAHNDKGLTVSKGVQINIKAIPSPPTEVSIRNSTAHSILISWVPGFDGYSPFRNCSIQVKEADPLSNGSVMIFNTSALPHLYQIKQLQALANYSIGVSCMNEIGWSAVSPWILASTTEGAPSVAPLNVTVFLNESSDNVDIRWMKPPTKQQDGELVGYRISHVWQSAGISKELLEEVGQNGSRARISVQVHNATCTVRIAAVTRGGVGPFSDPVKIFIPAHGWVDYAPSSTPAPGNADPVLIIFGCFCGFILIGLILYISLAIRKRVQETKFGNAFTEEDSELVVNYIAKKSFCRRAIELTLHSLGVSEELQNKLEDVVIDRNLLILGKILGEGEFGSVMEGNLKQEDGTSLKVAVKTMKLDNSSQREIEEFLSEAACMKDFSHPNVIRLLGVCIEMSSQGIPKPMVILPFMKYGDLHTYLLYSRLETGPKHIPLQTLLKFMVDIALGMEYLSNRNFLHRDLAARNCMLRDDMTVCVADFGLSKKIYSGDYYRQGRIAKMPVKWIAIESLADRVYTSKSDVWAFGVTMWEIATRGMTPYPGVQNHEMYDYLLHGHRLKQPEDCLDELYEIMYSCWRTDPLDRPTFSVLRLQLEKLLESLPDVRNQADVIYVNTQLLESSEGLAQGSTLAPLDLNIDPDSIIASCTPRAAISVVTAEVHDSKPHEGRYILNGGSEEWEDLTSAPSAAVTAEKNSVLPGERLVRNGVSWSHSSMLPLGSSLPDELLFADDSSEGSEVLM
Assay comment: phosphorylation enrichment, bacterial display (enrichment ratio); higher = better substrate or ligand; peptides without Tyr show the background
The class of a record is decided solely by its measured phosphorylation enrichment; consult L (below 0.4), M (0.4 to below 0.6), H (0.6 or more)

SKNSKYNAEST [PSEN1_Y315]; L
LTVVIYVLIGR [EPHA3_Y561]; H
SHEELYKWFTS [DYNC1H1_Y3051]; H
FTRNFYVQAVL [CYBA_Y88_R90Q_YF]; M

Qu. Category of DENRFYTRAAS [RPS19_Y54_W52R] :
Ans. M

Qu. Category of RKKEEYKMAPY [F8_Y1990_L1994P] :
Ans. H

Qu. Category of SSNLFYRCLTA [CNGA3_Y169_W171C_YF] :
Ans. M

Qu. Category of LRTAVHHEILI [CREBBP_Y1450_Y1450H] :
Ans. M

Qu. Category of QDRDLYPCPGT [RLF_Y671] :
Ans. H

Qu. Category of QMQLKYSQSDL [SMC1A_Y714_R711Q] :
Ans. H

Qu. Category of HAVEDYQAIVD [CCT7_Y263_T259A] :
Ans. H

Qu. Category of NIRKKYYRAIL [CHD7_Y1217_Q1214R] :
Ans. M

Qu. Category of KNSFKYFMSDD [ATRX_Y203_C200S_YF] :
Ans. M

###

Target under test: Jak2 (UniProt O60674)
Sequence (O60674 whole entry, looked up): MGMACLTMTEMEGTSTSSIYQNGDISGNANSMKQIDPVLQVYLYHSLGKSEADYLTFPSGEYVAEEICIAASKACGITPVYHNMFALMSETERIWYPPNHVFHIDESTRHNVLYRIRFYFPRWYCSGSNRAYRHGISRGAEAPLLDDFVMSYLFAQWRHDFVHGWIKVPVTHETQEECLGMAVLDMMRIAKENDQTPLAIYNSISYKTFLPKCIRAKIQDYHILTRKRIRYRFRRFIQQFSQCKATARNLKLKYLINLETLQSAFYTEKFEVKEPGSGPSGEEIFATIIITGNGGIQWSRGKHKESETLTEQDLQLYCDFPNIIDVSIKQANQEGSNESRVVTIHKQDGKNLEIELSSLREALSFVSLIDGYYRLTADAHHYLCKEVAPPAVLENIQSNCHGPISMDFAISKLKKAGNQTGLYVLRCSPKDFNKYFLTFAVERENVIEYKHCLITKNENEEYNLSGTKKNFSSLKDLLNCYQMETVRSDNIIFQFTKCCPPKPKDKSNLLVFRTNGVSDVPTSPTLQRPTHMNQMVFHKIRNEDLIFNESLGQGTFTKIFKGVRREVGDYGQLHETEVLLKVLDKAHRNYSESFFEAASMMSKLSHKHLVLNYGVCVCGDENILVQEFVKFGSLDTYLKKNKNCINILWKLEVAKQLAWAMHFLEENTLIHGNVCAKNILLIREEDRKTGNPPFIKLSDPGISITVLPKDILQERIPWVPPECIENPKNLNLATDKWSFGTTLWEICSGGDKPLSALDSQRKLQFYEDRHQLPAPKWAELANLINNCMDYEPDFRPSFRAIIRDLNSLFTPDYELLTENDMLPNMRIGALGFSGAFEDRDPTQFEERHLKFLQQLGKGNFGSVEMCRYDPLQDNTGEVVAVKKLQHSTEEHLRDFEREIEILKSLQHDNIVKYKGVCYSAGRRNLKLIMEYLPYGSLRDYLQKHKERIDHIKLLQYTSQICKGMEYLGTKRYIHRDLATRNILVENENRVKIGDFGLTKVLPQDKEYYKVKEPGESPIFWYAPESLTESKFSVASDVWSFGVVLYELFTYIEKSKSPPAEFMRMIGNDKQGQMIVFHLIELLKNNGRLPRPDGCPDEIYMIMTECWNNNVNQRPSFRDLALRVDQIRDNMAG
Assay comment: phosphorylation enrichment, bacterial display (enrichment ratio); higher = better substrate or ligand; peptides without Tyr show the background
# binarize phosphorylation enrichment: threshold 1 inclusive, high side yes, low side no

Example cases with answers are listed next.
VNRSGYTLIRK [ATP6V0A2_Y688]; no
YGMQLYQNYMH [GRB14_Y347]; no
EEEYEYMNRRR [ERBB3_Y1199_D1194E]; no
TIWDSYTTNKV [GNB1_Y85_I80T]; yes
SEPDLYCDPRG [PKP1_Y160]; yes
LHSEAYLKFNE [PBRM1_Y1610_I1614N_YF]; yes

Qu. Is phosphorylation enrichment at least 1? Consider GSIQQYIYKQE [PRG4_Y1271]
Ans. no

Qu. Is phosphorylation enrichment at least 1? Consider SVEELYAIPPD [PEAK1_Y797]
Ans. yes

###

Entries and their phosphorylation enrichment
Target under test: Jak2 (UniProt O60674)
Assay comment: phosphorylation enrichment, bacterial display (enrichment ratio); higher = better substrate or ligand; peptides without Tyr show the background

These solved cases illustrate the format of a correct answer.
VMLENYSNLLS [ZFP69_Y109_V113L]; 0.699
KNKKDYFDMFE [SLC26A3_Y526_YF]; 0.706
QAEEWYFGKMG [YES1_Y159]; 1.44
SRDDDYETIAM [NPY1R_Y347]; 1.16
QFQEKYKQMEQ [HCN4_Y531_V534M_YF]; 1.36
GVRTIYTIDGS [DCLK2_Y124]; 0.69

Qu. Retrieve phosphorylation enrichment measured for VPLATYMQIYK [RPL21_Y30_R32Q] and print it.
Ans. 0.51

Qu. Retrieve phosphorylation enrichment measured for GRSTFYWPRPR [GAGE12J_Y10_YF] and print it.
Ans. 0.644

Qu. Retrieve phosphorylation enrichment measured for MVIPNYSSWTE [UROC1_Y185_R188W] and print it.
Ans. 1.16
